assay: GSK_TCMDC: Inhibition Frequency Index (IFI). The number of non-kinase HTS assays where a compound showed > 50 % inhibition, expressed as a percentage of the number of such assays in which the compound was tested; assay type: functional
In all, about 13,000 compounds were measured (“IFI”: median about 4, highest 2% from about 17 on). Many of the other results were omitted from the sample, so the highest values are more common in it than they were.
IFI strictly less than 7% = Condition met. Otherwise Condition not met.

Use these answered entries as a reference point.
Consider the molecule "O=C1CCCN1CCCNCc1cccc(-c2cccc(-c3nc4cc(F)ccc4[nH]3)c2)c1" . Is its IFI strictly less than 7%?
Condition met

Confirm or reject: IFI of "Cc1[nH]c(C)c(-c2ccc(-c3ccccc3C(F)(F)F)nc2)c(=O)c1Br" lies strictly below 7%
Condition met

Strictly below 7% in IFI? "c1ccc(Oc2ccc(Nc3ccnc(Nc4cccc(CNCCCN5CCOCC5)c4)n3)cc2)cc1"
Condition not met

***
A record lists CC(CN1CCN(C)CC1)C(=O)Nc1ccc(-c2cccc(-c3nc4cc(F)ccc4[nH]3)c2)cc1 (stereo not given) . Is its IFI below 7%?
Condition met

Values were extracted from ChEMBL document CHEMBL1157539.
